Reference source for all entries: patent US11478461B2

molecular target: IDO1 (Homo sapiens, UniProt P14902); test: IDO1 Cellular Assay in Hela Cells Stimulated with IFNγ; assay type: cell-based; details: IFNγ 100 ng/mL, 300 uM L-tryptophan, about 48 hours, fluorescence readout, read-out: IDO1 HELA Cell Assay, IC50
Sequence (P14902 whole entry): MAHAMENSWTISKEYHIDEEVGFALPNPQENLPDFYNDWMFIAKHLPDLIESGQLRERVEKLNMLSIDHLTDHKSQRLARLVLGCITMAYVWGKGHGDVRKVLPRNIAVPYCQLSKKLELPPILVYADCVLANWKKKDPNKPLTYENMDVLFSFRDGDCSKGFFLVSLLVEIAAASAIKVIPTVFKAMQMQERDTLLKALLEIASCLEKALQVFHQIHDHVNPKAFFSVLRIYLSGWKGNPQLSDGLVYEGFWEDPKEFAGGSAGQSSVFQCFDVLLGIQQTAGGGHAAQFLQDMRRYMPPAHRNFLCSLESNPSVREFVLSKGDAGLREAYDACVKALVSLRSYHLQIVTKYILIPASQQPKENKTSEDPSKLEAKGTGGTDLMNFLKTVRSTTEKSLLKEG
Counter-ions that a name gives are not always drawn.
Under this convention, yes (1) denotes IC50 strictly below 30 nM and no (0) denotes IC50 at or above 30 nM.

Strictly below 30 nM: is that where IC50 of `C[C@H](C(=O)Nc1ccc(F)cc1)C12CC(NC(=O)c3ccc(Cl)nc3)(C1)C2` sits?
no (0)

Strictly below 30 nM: is that where IC50 of C[C@H](C(=O)Nc1cncc(Cl)c1)C12CC(NC(=O)c3ccc(Cl)c(Cl)c3)(C1)C2 [Example 94, trifluoroacetate] sits?
yes (1)

Strictly below 30 nM: is that where IC50 of CC(C(=O)Nc1ccc(Cl)nc1)C12CC(NC(=O)c3cccc(Cl)c3)(C1)C2 (single isomer, unassigned) [Example 17] sits?
yes (1)

Strictly below 30 nM: is that where IC50 of CC(C(=O)Nc1ccc(Cl)c(F)c1)C12CC(NC(=O)c3cccc(Cl)c3)(C1)C2 (single isomer, unassigned) [Example 11] sits?
yes (1)

Strictly below 30 nM: is that where IC50 of CC(C(=O)Nc1ccc(Cl)cc1)C12CC(NC(=O)c3cccc(C#N)c3)(C1)C2 (single isomer, unassigned) [Example 13] sits?
no (0)

Strictly below 30 nM: is that where IC50 of CC(C(=O)Nc1ccc(F)cc1)C12CC(NC(=O)c3ccc(Cl)c(Cl)c3)(C1)C2 (single isomer, unassigned) [Example 8] sits?
yes (1)

Strictly below 30 nM: is that where IC50 of `CC(C)(NC(=O)c1ccc(F)cc1)C12CC(NC(=O)c3ccc(Cl)c(Cl)c3)(C1)C2` sits?
no (0)

Strictly below 30 nM: is that where IC50 of CC(C(=O)Nc1ccc(F)cc1)C12CC(NC(=O)c3cc4ccccn4c3)(C1)C2 (stereo not drawn) sits?
no (0)

Strictly below 30 nM: is that where IC50 of `Cc1cc(C(=O)NC23CC([C@H](C)C(=O)Nc4ccc(F)cc4)(C2)C3)ccc1C#N` sits?
no (0)

Strictly below 30 nM: is that where IC50 of `CC(C)OC(=O)NC12CC([C@H](C)C(=O)Nc3ccc(F)cc3)(C1)C2` sits?
yes (1)

Strictly below 30 nM: is that where IC50 of `N#Cc1cccc(C(=O)NC23CC(C4(C(=O)Nc5ccc(F)cc5)CCC4)(C2)C3)c1` sits?
no (0)

Strictly below 30 nM: is that where IC50 of Cc1cc(C(=O)NC23CC([C@@H](C)C(=O)Nc4ccc(F)cc4)(C2)C3)ccc1Cl [Example 45] sits?
no (0)

Strictly below 30 nM: is that where IC50 of `C[C@H](C(=O)Nc1ccc(F)cc1)C12CC(NC(=O)c3ccc(C(F)(F)F)nc3)(C1)C2` sits?
no (0)

Strictly below 30 nM: is that where IC50 of `COc1cc(C(=O)NC23CC([C@H](C)C(=O)Nc4ccc(F)cc4)(C2)C3)ccc1F` sits?
no (0)
